- Procedure Details: qHTS assay to identify small molecule agonists of the RXR signaling pathway - cell viability counter screen (AID 1159529);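 further: HEK 293T cells carrying an RXR-alpha UAS beta-lactamase reporter; on the % scale 0 is the no-effect control and ±100 the full control effect; nearly all actives have a fitted effect of over 50% in size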
- Condition Notes: RXR-alpha-bla HEK293T viability, CellTiter-Glo, 16 h; series mostly up to 76.8 µM
Inconclusive results are not listed. Calls of active or inactive are those of the source. The call rests on the fitted dose curve; in most records, active means well fitted cell-killing curve with a large enough effect in the repeat runs; inconclusive means weak or mixed curves, or effect the other way; inactive means no such curve, though single readings can be large or run the other way.
Tick one outcome: active, inactive

Recorded results for 3 molecules are shown here.
C=CCOc1ccccc1OCC(O)CNC(C)C (stereo not drawn) = inactive
C[C@@H]1C[C@H]2[C@@H]3CCC4=CC(=O)C=C[C@]4(C)[C@@]3(F)[C@@H](O)C[C@]2(C)[C@@]1(O)C(=O)COC(=O)c1ccncc1 = inactive
C#CCN(C)CCCOc1ccc(Cl)cc1Cl = inactive

What classification did `C=C(C)C(=O)OCC` end up with in this test?
inactive

Consider next the molecule `CC(C)C[C@H]1C(=O)N2CCC[C@H]2[C@]2(O)O[C@](NC(=O)[C@@H]3C=C4c5cccc6[nH]c(Br)c(c56)C[C@H]4N(C)C3)(C(C)C)C(=O)N12` in the same way.
inactive

Also, `O=C(OCCc1ccccc1)c1ccccc1` please.
inactive

* * *

- Procedure Details: qHTS assay to identify small molecule antagonists of the sonic hedgehog signaling (Shh) pathway (AID 1259369); further: on the % scale 0 is the no-effect control and ±100 the full control effect; nearly all actives have a fitted effect of over 45% in size
- Condition Notes: NIH/3T3 Gli1-Luc reporter, Shh antagonist, luminescence 24 h; series mostly up to 92.4 µM
Results filed as inconclusive are left out. The source made the active and inactive calls. The call rests on the fitted dose curve.
Reported Property: activity change, negative = inhibition

Check out these entries, answers already filled in.
NCC(=O)O = 20.6% [at 19 µM] (inactive)
CN(C)c1ccc(/C=C/c2ccc([N+](=O)[O-])cc2)cc1 = 48% [at 8.39 µM] (inactive)
O=C(O)CNCC(=O)O = 8.21% [at 8.39 µM] (inactive)
Brc1c2ccccc2c(Br)c2ccccc12 = 2.55% [at 8.39 µM] (inactive)

For each of the compounds below, note its activity change, negative = inhibition.
1. CC(CSC(=O)c1ccccc1)C(=O)N1C[C@@H](Sc2ccccc2)C[C@H]1C(=O)O (some centres not stated)
2. C/C(=C(\CCOP(=O)(O)O)SC(=O)c1ccccc1)N(C=O)Cc1cnc(C)nc1N

9.12% [at 19 µM] (inactive)
1.8% [at 8.39 µM] (inactive)

// activity change, negative = inhibition lookup, key: `NC(N)=NCCC[C@H](N)C(=O)O`
18.9% [at 8.39 µM] (inactive)

* * *

- Procedure Details: qHTS assay to identify small molecule agonists of the sonic hedgehog signaling (Shh) pathway (AID 1259368);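 further: NIH/3T3-derived 3T3Gli1-Luc cells carrying a stable Gli1-driven firefly luciferase reporter; on the % scale 0 is the no-effect control and ±100 the full control effect; nearly all actives have a fitted effect of over 15% in size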
- Condition Notes: NIH/3T3 Gli1-Luc reporter, luciferase, 24 h, hits give high values; series mostly up to 92.4 µM
Calls of active or inactive are those of the source. Calls follow the shape of the full dose curve.
Reported Property: activity change

For orientation, consider the following solved cases.
COc1ccc2cccc(CCNC(C)=O)c2c1 = inactive
CNCCCN1c2ccccc2CCc2ccccc21 = inactive
CCCCCCc1ccc(-c2ccc(C#N)cc2)cc1 = inactive
CCCCCCCCCCCCCCCCCCOS(=O)(=O)O = inactive
CC1=CC[C@H](C(C)C)C=C1 = inactive
CC(C)OC(=O)C(C)N(C(=O)c1ccccc1)c1ccc(F)c(Cl)c1 (configuration not stated) = inactive

Batch: activity change for all items listed.
1. CCOC(=O)c1cccnc1
2. NCc1ccccc1Sc1ccccc1CO
3. CC(COCCO)OCCO (configuration not stated)
4. CCCCNc1ccc(C(=O)OCCOCCOCCOCCOCCOCCOCCOCCOCCOC)cc1
5. O=C1OC(=O)C2C3C=CC(C3)C12 (configuration not stated)
6. CCOC(=O)NCCOc1ccc(Oc2ccccc2)cc1

1: inactive; 2: inactive; 3: inactive; 4: inactive; 5: inactive; 6: inactive

* * *

Give measured max activation for each item. Keep answers brief.
- Target Or Test System: Nuclear receptor subfamily 1 group I member 2 (Rattus norvegicus) (UniProt Q9R1A7)
- Sequence (Q9R1A7 whole entry, looked up): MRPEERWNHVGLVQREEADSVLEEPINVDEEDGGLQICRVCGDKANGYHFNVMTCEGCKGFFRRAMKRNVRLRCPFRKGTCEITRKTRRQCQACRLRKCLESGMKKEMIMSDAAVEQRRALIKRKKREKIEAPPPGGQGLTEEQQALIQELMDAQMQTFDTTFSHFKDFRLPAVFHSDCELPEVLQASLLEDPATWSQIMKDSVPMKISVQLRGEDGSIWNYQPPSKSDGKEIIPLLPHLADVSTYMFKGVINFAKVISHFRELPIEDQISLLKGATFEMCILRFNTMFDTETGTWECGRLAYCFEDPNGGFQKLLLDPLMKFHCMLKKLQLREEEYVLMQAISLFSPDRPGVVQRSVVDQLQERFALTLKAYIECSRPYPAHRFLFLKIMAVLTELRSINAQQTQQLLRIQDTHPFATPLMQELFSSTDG
- Procedure Details: Rat pregnane X receptor (rPXR) activation by small molecules, qHTS assay (AID 1346983); further: on the % scale 0 is the no-effect control and ±100 the full control effect; nearly all actives have a fitted effect of over 20% in size
- Condition Notes: rPXR luciferase reporter cells, One-Glo luminescence, 24 h; hits give high values
- Text: National Center for Advancing Translational Sciences [NCATS] NIH Chemical Genomics Center [NCGC] U.S. Environmental Protection Agency [EPA] National Institutes of Environmental Health Sciences [NIEHS] National Toxicology Program [NTP] Assay overview: The Pregnane X receptor (PXR), a ligand activated nuclear receptor plays a critical role in the regulation of genes involved in drug metabolism and transporters. […]
Records with an inconclusive call do not appear.
Numbers only, in %.

Solved entries (count: 4):
C[N+]1(CC2COC(c3ccccc3)(C3CCCCC3)O2)CCCCC1 (stereo unspecified) = -1.36
Clc1ccc2c(c1)CCc1cccnc1C2=C1CCNCC1 = -7.49
CC(=O)OC[C@H]1O[C@@H](n2ncc(=O)[nH]c2=O)[C@H](OC(C)=O)[C@@H]1OC(C)=O = -1.15
O=C(c1ccc(F)cc1)C1CCN(CCn2c(=S)[nH]c3ccccc3c2=O)CC1 = 1.09

Quick one: give me max activation for each item below, same order please.
1. OCc1cc(C(O)CNCCCCCCOCCCCc2ccccc2)ccc1O (stereo unspecified)
2. NCC(=O)CCC(=O)O

1: 0.017; 2: -1.79

* * *

- Procedure Details: qHTS assay to identify small molecule that activate the aryl hydrocarbon receptor (AhR) signaling pathway - cell viability counter screen (AID 743086); further: nearly all actives have a fitted effect of over 45% in size
- Condition Notes: HepG2-AhR-luc viability, CellTiter-Fluor, 24 h; series mostly up to 70.3 µM
Records with an inconclusive call do not appear. Activity calls are given as the source filed them. Calls follow the shape of the dose curve; as a rule, active = well fitted cell-killing curve with a large enough effect in the repeat runs; inconclusive = weak or mixed curves, or effect the other way; inactive = flat fitted curve, though single readings scatter.
// one of Y (active), N (inactive), no free text

Answered examples (8):
NCC(=O)O = N
CCOc1ccc(N=Nc2ccc(/C=C/c3ccc(N=Nc4ccc(OCC)cc4)cc3S(=O)(=O)O)c(S(=O)(=O)O)c2)cc1 = Y
O=S(=O)(Oc1ccc(Cl)cc1)c1ccccc1 = N
COc1ccc(C(=O)c2ccc(OC)cc2O)c(O)c1 = N
C/C(=C(\CCOP(=O)(O)O)SC(=O)c1ccccc1)N(C=O)Cc1cnc(C)nc1N = N
C=C1C(=C/C=C2\CCC[C@]3(C)[C@@H]([C@H](C)/C=C/[C@@H](O)C4CC4)CC[C@@H]23)C[C@@H](O)C[C@@H]1O = N
Nc1cccc(S(=O)(=O)c2cccc(N)c2)c1 = N
Clc1ccc(Cn2c(CN3CCCC3)nc3ccccc32)cc1 = N

Short answer needed: outcome of this test for `CCCCCCCC/C=C\CCCCCCCC(=O)OCC` ?
N

Proceed to `COC(=O)c1ccc(I)cc1S(=O)(=O)NC(=O)Nc1nc(C)nc(OC)n1`
N

Next up: `O=C1C(O)=C(O)C(=O)C(O)=C1O`
N

* * *

- Procedure Details: qHTS assay for identifying genotoxic compounds that show differential cytotoxicity against isogenic chicken DT40 cell lines with known DNA damage response pathways - wild type cell line (AID 743012); further: nearly all actives have a fitted effect of over 60% in size
- Condition Notes: DT40 wild type chicken cells viability, CellTiter-Glo, 40 h; series mostly up to 68.4 µM
Results filed as inconclusive are left out. Activity calls are given as the source filed them. The call rests on the fitted dose curve; in most records, active means well fitted cell-killing curve with a large enough effect in the repeat runs; inconclusive means weak or mixed curves, or effect the other way; inactive means no such curve, though single readings can be large or run the other way.
Allowed answers: active, inactive

Worked examples follow.
CCC(=O)O[C@]1(C(=O)CCl)[C@@H](C)C[C@H]2[C@@H]3CCC4=CC(=O)C=C[C@]4(C)[C@@]3(F)[C@@H](O)C[C@@]21C = active
CC/C=C\CCOC(=O)CC = inactive
COc1cccc(N(C)C(=S)Oc2ccc3c(c2)CCCC3)n1 = active
Cc1nn(C)c(Oc2ccccc2)c1/C=N/OCc1ccc(C(=O)OC(C)(C)C)cc1 = active
C/C=C/C(=O)CC = inactive
CC[N+]1(CC)CCC(=C(c2ccccc2)c2ccccc2)C1C (stereo not drawn) = active
Cn1c(=O)cc(Oc2ccc(F)cc2F)c2cnc(NCC(C)(C)O)nc21 = inactive
Cc1oc(-c2ccccc2)nc1CCOc1cccc2c1ccn2CCC(=O)O = inactive
C=CCOc1ccccc1OCC(O)CNC(C)C (stereo not drawn) = inactive
C[Si](C)(CCCN)O[Si](C)(C)CCCN = inactive

I'd appreciate the recorded outcome for `COc1cc(C(=O)OCCCN2CCCN(CCCOC(=O)c3cc(OC)c(OC)c(OC)c3)CC2)cc(OC)c1OC` from this test.
active

How about this compound: `C#Cc1cccc(Nc2ncnc3cc(OCCOC)c(OCCOC)cc23)c1`
active

Follow-up item: CC(C)(C)OCC1CO1 (stereo not drawn)
inactive

Then `O=C1[C@H]2CCCC[C@H]2C(=O)N1CCCCN1CCN(c2nsc3ccccc23)CC1` ?
active

Proceed to `CN(C)c1ccc(C(c2ccccc2)c2ccc(N(C)C)cc2)cc1`
active

* * *

- Target Or Test System: Cytochrome P450 1A2 (Homo sapiens) (UniProt P05177)
- Sequence (P05177 whole entry, looked up): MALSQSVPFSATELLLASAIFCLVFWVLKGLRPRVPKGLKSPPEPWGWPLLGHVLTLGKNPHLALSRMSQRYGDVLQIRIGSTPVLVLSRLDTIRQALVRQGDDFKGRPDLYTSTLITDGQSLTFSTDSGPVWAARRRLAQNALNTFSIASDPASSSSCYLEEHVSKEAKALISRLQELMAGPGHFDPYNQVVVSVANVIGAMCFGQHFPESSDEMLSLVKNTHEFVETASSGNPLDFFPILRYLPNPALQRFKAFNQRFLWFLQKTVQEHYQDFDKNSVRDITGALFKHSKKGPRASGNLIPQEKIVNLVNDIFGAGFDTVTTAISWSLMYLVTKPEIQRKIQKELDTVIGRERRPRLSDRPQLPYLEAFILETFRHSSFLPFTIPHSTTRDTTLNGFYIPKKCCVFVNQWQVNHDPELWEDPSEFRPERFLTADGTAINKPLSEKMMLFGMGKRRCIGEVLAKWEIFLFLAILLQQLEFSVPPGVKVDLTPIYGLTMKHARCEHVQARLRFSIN
- Procedure Details: Cytochrome P450 Family 1 Subfamily A Member 2 (CYP1A2) small molecule antagonists: luciferase reporter qHTS assay (AID 1671199); further: nearly all actives have a fitted effect of over 50% in size
- Condition Notes: P450-Glo CYP1A2 enzyme, luciferin luminescence, 1 h; series mostly up to 53 µM
Inconclusive results are not listed. Activity calls are given as the source filed them. The call rests on the fitted dose curve; in most records, active means well fitted inhibition curve with a large enough effect in the repeat runs; inconclusive means weak or mixed curves; inactive means no such curve, though single readings can be large or run the other way.
One label from this list, please: 1 for active, -1 for inactive

Before answering, review these 8 worked examples.
C=C(C)C(=O)OCC = -1
CN1C[C@H]2c3ccccc3Oc3ccc(Cl)cc3[C@@H]2C1 = 1
CCCOC(C(=O)OC1CCN(C)CC1)(c1ccccc1)c1ccccc1 = -1
O=C1c2ccccc2S(=O)(=O)N1CCCCN1CCN(c2ncccn2)CC1 = -1
O=C1[C@H]2CCCC[C@H]2C(=O)N1CCCCN1CCN(c2nsc3ccccc23)CC1 = -1
CN(C)c1ccc(C(c2ccccc2)c2ccc(N(C)C)cc2)cc1 = 1
COc1cccc(N(C)C(=S)Oc2ccc3c(c2)CCCC3)n1 = 1
CC(=O)OC[C@H]1O[C@@H](n2ncc(=O)[nH]c2=O)[C@H](OC(C)=O)[C@@H]1OC(C)=O = -1

What classification did `CN(C)C(=O)NC1(c2ccccc2)CCN(CC[C@@]2(c3ccc(F)c(F)c3)CN(C(=O)c3ccccc3)CCO2)CC1` end up with in this test?
-1

Repeat with `Brc1c2ccccc2c(Br)c2ccccc12`
1

Same question, `CCC(C)(C)CC` this time
-1

And what about the molecule `c1cc(CCCc2ccncc2)ccn1` ?
1

What do you get for CCCCC(CC)CN1C(=O)C2C3C=CC(C3)C2C1=O (centres undefined) ?
1

Can you handle `O=C(OCCc1ccccc1)c1ccccc1` next?
1

Similarly, CCC(Cl)CCC(Cl)C(Cl)CC(Cl)C(Cl)C(Cl)CCl (centres undefined) ?
-1

Now the same for `CCOC(=O)C1=C[C@]2(CC)CCCN3CCc4c(n1c1ccccc41)[C@@H]32`
-1

`CCCCc1nc2cccnc2n1Cc1ccc(-c2ccccc2-c2nnn[nH]2)cc1` , same question.
1

Subsequent entry: `O=C(O)c1ccccc1Cl`
-1
